Kindly supply the reported IL-17F-induced IL-6 production in HT-1080 cells, Emax values for the records listed here.
- system.name: T1, human IL-17F (human, UniProt Q96PD4 31-163, biotinylated with Sulfo-NHS-LC-Biotin in the AlphaScreen assays only)
- T1 sequence: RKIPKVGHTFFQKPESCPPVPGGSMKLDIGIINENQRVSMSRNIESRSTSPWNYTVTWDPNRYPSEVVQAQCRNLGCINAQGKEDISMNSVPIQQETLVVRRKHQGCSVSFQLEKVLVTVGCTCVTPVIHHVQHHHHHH
- measurement.protocol: cell-based or functional assay
Give bare numbers, in %.

These recorded examples may help you get a feel for the data.
binder	assay.value
12A09 (VHH, Class 3 Nanobody (anti-IL-17F); not shown: c-myc, His6 tag) VHH: EVQLVESGGGLVQPGGSLRLSCAASGFTFSSYRMAWVRQAPGKGLEWVSSTSTGGEMTNYADSVKGRFTISRDNAKNTLHLQMNSLKPEDTALYYCAAGTSAGHWSTGGQGTQVTVSS	91
10A04 (VHH, Class 4 Nanobody (cross-reactive: anti-IL-17A, IL-17F and IL-17A/F); not shown: c-myc, His6 tag) VHH: EVQLVESGGGLVQPGGSLRLSCAASGFTFSSYWMYWVRQAPGKGLEWISALAPGGGNRYYAESVNGRFTISRDNAKNSLYLQMNSLKSEDTAVYYCAKDHNVGYRTGEYDYGGQGTQVTVSS	102
16A04 (VHH, Class 3 Nanobody (anti-IL-17F); also called IL17MS16A04; not shown: c-myc, His6 tag) VHH: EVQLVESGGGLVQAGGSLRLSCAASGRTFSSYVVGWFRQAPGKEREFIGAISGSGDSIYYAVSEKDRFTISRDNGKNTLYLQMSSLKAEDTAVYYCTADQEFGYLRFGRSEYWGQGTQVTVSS	100
13E02 (VHH, Class 4 Nanobody (cross-reactive: anti-IL-17A, IL-17F and IL-17A/F); also called IL17MS13E02; not shown: c-myc, His6 tag) VHH: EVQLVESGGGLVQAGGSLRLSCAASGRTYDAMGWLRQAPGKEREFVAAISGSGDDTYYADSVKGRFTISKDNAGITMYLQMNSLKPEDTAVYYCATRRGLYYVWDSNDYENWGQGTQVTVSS	86.5
08A08 (VHH, Class 3 Nanobody (anti-IL-17F); not shown: c-myc, His6 tag) VHH: EVQLVESGGGLVQAGGSLRLSCAASGRTFRPYRMGWFRRAPGKAREFVTLISWSSGRTSYADSVKGRFTISRDSAKNAVYLQMDNLKPEDTAVYFCAVDLSGDAVYDSWGQGTQVTVSS	62

Switching to the query record.
Ask | Could you tell me which IL-17F-induced IL-6 production in HT-1080 cells, Emax is on file for 13B03 (VHH, Class 4 Nanobody (cross-reactive: anti-IL-17A, IL-17F and IL-17A/F); also called IL17MS13B03; not shown: c-myc, His6 tag) VHH: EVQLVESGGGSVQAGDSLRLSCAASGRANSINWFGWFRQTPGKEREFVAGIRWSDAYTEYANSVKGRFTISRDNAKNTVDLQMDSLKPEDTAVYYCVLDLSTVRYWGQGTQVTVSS ?
Reply | 85.5
